Cited source: patent US20250206841A1

- experimental system: T1, human Trop-2 expressed on cell surface (human, UniProt P09758 27-323)
- T1 sequence (looked up): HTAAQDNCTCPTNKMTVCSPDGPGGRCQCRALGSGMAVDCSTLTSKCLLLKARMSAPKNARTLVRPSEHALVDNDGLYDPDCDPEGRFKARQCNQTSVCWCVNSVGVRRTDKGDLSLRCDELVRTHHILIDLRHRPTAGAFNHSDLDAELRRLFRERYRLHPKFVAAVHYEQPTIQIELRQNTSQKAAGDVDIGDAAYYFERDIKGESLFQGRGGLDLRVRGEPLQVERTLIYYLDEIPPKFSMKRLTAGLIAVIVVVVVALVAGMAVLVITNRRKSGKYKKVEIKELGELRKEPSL
- assay summary: cell-based or functional assay
Decision: Internalization %, MCF-7, 0.5 µg/ml, 4 h beneath 50% gives yes (1); Internalization %, MCF-7, 0.5 µg/ml, 4 h meeting or exceeding 50% gives no (0).

>>> group("1D10 (antibody, V domains shown, Rabbit-derived clone; LEM construct: VH + rabbit IgG CH1 + human IgG1 CH2-CH3) VH: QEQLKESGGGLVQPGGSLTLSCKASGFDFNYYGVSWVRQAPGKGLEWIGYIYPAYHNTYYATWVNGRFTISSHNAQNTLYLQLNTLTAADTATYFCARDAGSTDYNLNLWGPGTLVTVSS VL: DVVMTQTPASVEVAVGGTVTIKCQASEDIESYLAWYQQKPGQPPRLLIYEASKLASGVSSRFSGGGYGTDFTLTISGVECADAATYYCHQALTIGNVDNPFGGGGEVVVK")
"no (0)"
>>> group("9D7-2 (antibody, V domains shown) VH: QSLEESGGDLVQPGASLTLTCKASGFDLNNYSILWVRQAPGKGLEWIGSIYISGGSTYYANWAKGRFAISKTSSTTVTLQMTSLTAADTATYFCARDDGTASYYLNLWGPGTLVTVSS VL: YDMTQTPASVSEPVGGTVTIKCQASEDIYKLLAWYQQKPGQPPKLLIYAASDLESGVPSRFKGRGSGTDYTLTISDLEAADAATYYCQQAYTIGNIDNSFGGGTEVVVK")
"no (0)"
>>> group("62E3 (antibody, V domains shown, Rabbit-derived clone; LEM construct: VH + rabbit IgG CH1 + human IgG1 CH2-CH3) VH: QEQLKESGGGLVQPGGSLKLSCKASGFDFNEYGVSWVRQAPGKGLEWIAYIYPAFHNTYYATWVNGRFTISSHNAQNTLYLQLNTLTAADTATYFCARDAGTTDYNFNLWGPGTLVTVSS VL: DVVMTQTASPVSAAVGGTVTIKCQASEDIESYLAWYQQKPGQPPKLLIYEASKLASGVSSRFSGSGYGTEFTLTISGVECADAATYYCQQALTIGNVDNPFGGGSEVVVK")
"yes (1)"
>>> group("5D4-1 (antibody, V domains shown) VH: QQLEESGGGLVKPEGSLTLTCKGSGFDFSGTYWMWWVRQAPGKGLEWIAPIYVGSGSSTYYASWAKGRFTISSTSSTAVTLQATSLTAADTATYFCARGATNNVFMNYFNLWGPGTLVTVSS VL: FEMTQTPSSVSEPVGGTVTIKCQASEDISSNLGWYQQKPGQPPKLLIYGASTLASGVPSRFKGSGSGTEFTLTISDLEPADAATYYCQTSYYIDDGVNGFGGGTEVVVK")
"no (0)"
